# System: SR leukemia
# Protocol: NCI-60 one-dose screen, 48 h (100 = growth as untreated, 0 = no growth, -100 = all killed)
# Study conditions: 10 µM unless noted
The panel holds about 83,000 compounds, 20% with a hit somewhere; the sample as a whole holds those more often.
# growth values compiled below

{"Compound": "CC[n+]1ccc2c(c1)C(=O)c1nccc3c1c-2nc1ccccc13", "Subject of test": "SR leukemia", "growth [%]": 5.79}
{"Compound": "COc1ccc(-c2cnoc2-c2cc(OC)c3c(c2)OCCO3)cc1", "Subject of test": "SR leukemia", "growth [%]": 3.75}
{"Compound": "CC1=CC(=O)CC(C)(C)[C@@]1(O)/C=C/[C@@H](C)O", "Subject of test": "SR leukemia", "growth [%]": 111}
{"Compound": "c1ccc(Sc2ncnc3ccccc23)cc1", "Subject of test": "SR leukemia", "growth [%]": 25.5}
{"Compound": "COc1ccc(C(=O)c2sc3nc4c(c(C(F)(F)F)c3c2N)CN(C(C)=O)CC4)cc1OC", "Subject of test": "SR leukemia", "growth [%]": 79.4}
{"Compound": "CCCCCCCCCCCCN1CCCC(C)C1 (configuration not stated)", "Subject of test": "SR leukemia", "growth [%]": -13.9}
{"Compound": "COc1ccc(C/C(C)=C(\\c2ccc(OCCN3CCCCCC3)cc2)c2ccc(OC(=O)C3CCCCC3)cc2)cc1", "Subject of test": "SR leukemia", "growth [%]": 3.43}

---

# Test system: UO-31 renal
# Protocol: NCI-60 one-dose screen, 48 h
# Study conditions: 10 µM unless noted
Compounds without any hit were thinned out: in the full panel of roughly 83,000, 20% have a hit. Activity calls are given as the source filed them. The calls were made as follows: active = growth percent below 10; inactive = the rest.
Labels: label 1 = active, label 0 = inactive

{"Smiles notation": "O=C(CCCCN1CCOCC1)Nc1ccc(Cn2nnc3c2C(=O)c2nnn(Cc4ccc(NC(=O)CCCCN5CCOCC5)cc4)c2C3=O)cc1", "Label": "label 0"}
{"Smiles notation": "Cc1cc(=O)oc2cc(Oc3nc(-c4cccs4)cn4c(-c5cccs5)cnc34)ccc12", "Label": "label 0"}
{"Smiles notation": "O=C1c2cc3c(cc2-c2c1c1cc(F)c(F)cc1c(=O)n2C[C@H](O)CO)OCO3", "Label": "label 1"}
{"Smiles notation": "O=C1C[C@H](Sc2nc(-c3ccc(F)cc3)cc(C(F)(F)F)n2)[C@H]2CO[C@@H]1O2", "Label": "label 0"}
{"Smiles notation": "CCCCCCCCCCCCCC1=NCCN1CCO", "Label": "label 0"}

---

# Test system: SNB-75 CNS
# Protocol: NCI-60 one-dose screen, 48 h (100 = growth as untreated, 0 = no growth, -100 = all killed)
# Study conditions: 10 µM unless noted
This is part of a sample that, as a whole, favours compounds with a hit. Of some 83,000 tested, about 20% had one in any assay.
# growth values compiled below

{"Compound": "O=S(=O)(Nc1ccc(Cl)cc1Cl)c1ccc(-c2cnc(C3CC3)o2)cc1", "Subject of test": "SNB-75 CNS", "growth, %": 5.51}
{"Compound": "C=C1CCC2C3(C)COC(c4ccc(OC)cc4Br)OC3CCC2(C)C1/C=C/C1=CCOC1=O (stereo not given)", "Subject of test": "SNB-75 CNS", "growth, %": 82.3}
{"Compound": "O=C1OC2C(I)C3CC2C1C3c1ccccc1 (stereo not given)", "Subject of test": "SNB-75 CNS", "growth, %": 73.5}
{"Compound": "Clc1cccc(Nc2nc(Nc3cnc4ccccc4c3)c3[nH]cnc3n2)c1", "Subject of test": "SNB-75 CNS", "growth, %": 52.4}
{"Compound": "CN(C)c1ccc(/C=C\\C2=[N+](C)c3ccccc3C2(C)C)cc1", "Subject of test": "SNB-75 CNS", "growth, %": 31.3}

---

# Tested on: M14 melanoma
# Protocol: NCI-60 one-dose screen, 48 h
# Study conditions: 10 µM unless noted
Compounds without any hit were thinned out: in the full panel of roughly 83,000, 20% have a hit. Active and inactive are the calls of the source. Rule for the calls: active = growth percent below 10; inactive = the rest.
Labels: TRUE = active, FALSE = inactive

{"Compound": "CC(=O)Oc1ccc(Nc2c3ccccc3nc3ccccc23)cc1", "Subject of test": "M14 melanoma", "Label": "FALSE"}
{"Compound": "C=C1CC2(OC1=O)C(=O)Nc1ccccc12 (configuration not stated)", "Subject of test": "M14 melanoma", "Label": "FALSE"}
{"Compound": "CC(C)[C@@H]1CC[C@]2(C(=O)NCCCCN=C(N)N)CC[C@]3(C)[C@H](CC[C@@H]4[C@@]5(C)CCC(=O)C(C)(C)[C@@H]5CC[C@]43C)[C@@H]12", "Subject of test": "M14 melanoma", "Label": "FALSE"}
{"Compound": "N#Cc1c(N)nc(N)nc1Nc1ccc(Br)cc1", "Subject of test": "M14 melanoma", "Label": "FALSE"}
{"Compound": "CSc1nc(NCCO)c(C#N)c(-c2cccc(N)c2)n1", "Subject of test": "M14 melanoma", "Label": "FALSE"}
{"Compound": "CC/C=C\\C[C@H](F)C/C=C1/C(=O)C=C[C@@H]1C/C=C\\CCCC(=O)OC", "Subject of test": "M14 melanoma", "Label": "TRUE"}
{"Compound": "O=C1c2cccnc2C(=O)c2c1c(C(=O)OCCN1CCCCC1)c1ccccn21", "Subject of test": "M14 melanoma", "Label": "TRUE"}
{"Compound": "NC(=S)N/N=C/c1ccc(OCc2ccccc2)cc1", "Subject of test": "M14 melanoma", "Label": "FALSE"}
{"Compound": "CCNS(=O)(=O)c1ncnc2nc[nH]c12", "Subject of test": "M14 melanoma", "Label": "FALSE"}
{"Compound": "Cc1noc(C)c1-c1cc(O)cc(C(O)c2ccccc2)c1 (configuration not stated)", "Subject of test": "M14 melanoma", "Label": "FALSE"}
{"Compound": "CCOC(=O)c1c2ncccc2n2c(=O)n(-c3ccc(Cl)cc3)nnc12", "Subject of test": "M14 melanoma", "Label": "FALSE"}
{"Compound": "COc1ccc(-c2cnoc2-c2cc(OC)c3c(c2)OCCO3)cc1", "Subject of test": "M14 melanoma", "Label": "TRUE"}
{"Compound": "c1ccc2sc(SCCCn3ccnc3)nc2c1", "Subject of test": "M14 melanoma", "Label": "FALSE"}
{"Compound": "CCN(CC)Cc1cc(Nc2c3ccc(Cl)cc3nc3c(C)cccc23)ccc1O", "Subject of test": "M14 melanoma", "Label": "TRUE"}
{"Compound": "C/C=C/C(N)=O", "Subject of test": "M14 melanoma", "Label": "FALSE"}
{"Compound": "CCC(c1ccc(O)cc1)C(CC)c1ccc(O)c(F)c1 (configuration not stated)", "Subject of test": "M14 melanoma", "Label": "FALSE"}
{"Compound": "CNc1cc2nc3cc(NC)c(C)cc3cc2cc1C", "Subject of test": "M14 melanoma", "Label": "FALSE"}

---

# Tested on: NCI-H460 lung
# Protocol: NCI-60 one-dose screen, 48 h
# Study conditions: 10 µM unless noted
The panel holds about 83,000 compounds, 20% with a hit somewhere; the sample as a whole holds those more often. Activity calls are given as the source filed them. The calls were made as follows: active = growth percent below 10; inactive = the rest.
Labels: label 1 (active), label 0 (inactive)

{"Compound": "CCCCCCCCCCCCCCCCCCNC(=O)[C@H]1CSC(c2ccc(F)c(OC)c2)N1 (some centres not stated)", "Subject of test": "NCI-H460 lung", "Label": "label 1"}
{"Compound": "COc1cc2nc3cc([N+](=O)[O-])ccc3c(NCCCNCC(C)(C)O)c2cc1OC", "Subject of test": "NCI-H460 lung", "Label": "label 1"}
{"Compound": "COc1cc(NCCCCN=C(N)N)c2ncccc2c1", "Subject of test": "NCI-H460 lung", "Label": "label 0"}
{"Compound": "CN1CCCCC1CCN1c2ccccc2Sc2ccc(Cl)cc21 (configuration not stated)", "Subject of test": "NCI-H460 lung", "Label": "label 0"}
{"Compound": "O=C1C=CC(=O)N1c1ccc(Cc2ccc(N3C(=O)C=CC3=O)cc2)cc1", "Subject of test": "NCI-H460 lung", "Label": "label 0"}
{"Compound": "C=C1CCC2C3(C)COC(C)(C)OC3CCC2(C)C1C/C=C1/C(=O)OCC1OC(C)=O (configuration not stated)", "Subject of test": "NCI-H460 lung", "Label": "label 0"}
{"Compound": "CS(=O)(CCCCN=C=S)=NC(=O)c1c(F)c(F)c(F)c(F)c1F (configuration not stated)", "Subject of test": "NCI-H460 lung", "Label": "label 0"}
{"Compound": "O=C(O)c1ccc2c(c1Sc1ccccc1)C(=O)c1ccccc1C2=O", "Subject of test": "NCI-H460 lung", "Label": "label 0"}
{"Compound": "COC(/C=C/c1ccc([N+](=O)[O-])cc1)OC", "Subject of test": "NCI-H460 lung", "Label": "label 0"}
{"Compound": "C/C(=C(/c1ccc(O)cc1)c1ccc(OCCN2CCCC2)cc1)c1ccccc1", "Subject of test": "NCI-H460 lung", "Label": "label 0"}
{"Compound": "Nc1cc(O)cc2cccnc12", "Subject of test": "NCI-H460 lung", "Label": "label 0"}
{"Compound": "CNC(=O)c1cc(Oc2ccc3nc(NC(=O)Nc4ccc(N5CCC(N(C)C)CC5)cc4)sc3c2)ccn1", "Subject of test": "NCI-H460 lung", "Label": "label 0"}
